Can you tell me MFI fold change over parental CHO for the items I'm about to list?
# experimental.target: T1, human SIRPγ on stably transfected CHO cells (human, UniProt Q9P1W8 29-387)
# T1 construct: also called Human SIRPγ CHO
# T1 sequence (Q9P1W8 29-387 limits assumed): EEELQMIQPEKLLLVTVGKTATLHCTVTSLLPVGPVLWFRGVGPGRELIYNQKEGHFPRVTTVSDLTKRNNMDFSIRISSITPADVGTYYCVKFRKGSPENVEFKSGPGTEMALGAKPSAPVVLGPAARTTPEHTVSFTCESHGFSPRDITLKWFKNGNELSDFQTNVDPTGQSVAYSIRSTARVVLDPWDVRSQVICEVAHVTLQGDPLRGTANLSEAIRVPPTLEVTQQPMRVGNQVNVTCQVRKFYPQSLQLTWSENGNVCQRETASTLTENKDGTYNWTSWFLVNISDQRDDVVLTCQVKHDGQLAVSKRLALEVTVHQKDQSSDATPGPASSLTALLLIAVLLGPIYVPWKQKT
# assay.protocol: flow cytometry, myc-scFv PPE
Use fold as the unit, but write only the number.

Entry under review: Antibody 37 (scFv, V domains shown, scFv in crude PPE, V5/myc-tagged) VH: QVQLVQSGAEVKKPGASVKVSCKASGYTLNNYDINWVRQAPGQGLEWMGWISGYNGNTNYAQKLQGRVTMTRDTSTSTVYMELSSLRSEDTAVYYCARVGSSWEENDQWGQGTLVTVSS VL: DIQMTQSPSSLSASVGDRVTITCRASQSISRWLAWYQQKPGKAPKLLIYAASSLESGVPSRFSGSGSGTDFTLTISSLQPEDFATYYCQQTHSFPLTFGGGTKVEIK . Reported MFI fold change over parental CHO?
31.1

Entry under review: Antibody 35 (scFv, V domains shown, scFv in crude PPE, V5/myc-tagged) VH: QVQLVQSGAEVKKPGASVKVSCKASGYTFTSYYIHWVRQAPGQGLEWMGTINPSGGSTSYAQKFQGRVTMTRDTSTSTVYMELSSLRSEDTAVYYCARETSRWLRDYYYGMDVWGQGTTVTVSS VL: DIVMTQSPLSLPVTPGEPASISCRSSQSLLHSNGYNYLDWYLQKPGQSPQLLIYDASSLESGVPDRFSGSGSGTDFTLKISRVEAEDVGVYYCMQGTHWPLTFGGGTKVEIK . Reported MFI fold change over parental CHO?
18.3
